Listed compounds paired with reported Activity
Target: Estrogen receptor (Homo sapiens) (UniProt P03372)
Sequence (whole entry): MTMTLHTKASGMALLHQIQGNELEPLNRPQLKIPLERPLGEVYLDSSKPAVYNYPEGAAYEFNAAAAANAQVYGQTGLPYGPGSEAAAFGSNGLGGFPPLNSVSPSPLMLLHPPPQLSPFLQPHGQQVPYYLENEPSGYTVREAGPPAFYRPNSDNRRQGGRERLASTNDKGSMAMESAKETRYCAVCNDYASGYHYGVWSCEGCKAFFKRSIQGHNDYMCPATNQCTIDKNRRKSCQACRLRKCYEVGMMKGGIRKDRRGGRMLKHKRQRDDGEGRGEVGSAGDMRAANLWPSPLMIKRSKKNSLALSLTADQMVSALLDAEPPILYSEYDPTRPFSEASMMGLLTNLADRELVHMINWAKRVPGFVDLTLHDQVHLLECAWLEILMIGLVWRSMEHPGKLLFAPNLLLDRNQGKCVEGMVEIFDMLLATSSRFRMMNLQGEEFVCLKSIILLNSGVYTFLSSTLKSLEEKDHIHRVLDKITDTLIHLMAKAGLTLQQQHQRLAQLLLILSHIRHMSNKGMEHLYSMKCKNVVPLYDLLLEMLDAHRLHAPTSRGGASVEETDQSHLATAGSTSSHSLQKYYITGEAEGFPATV
Test: Antagonist activity at ERalpha (301 to 553 amino acid residues) (unknown origin) assessed as inhibition of E2 induced interaction with SRC1 after 24 hrs by yeast-two-hybrid assay
Set-up: concentration or dose not given beside the values

Consider the worked cases shown below.
- compound: "Oc1cc(O)c2c(c1)[C@H]1[C@H](c3ccccc3)c3c(O)cc(O)cc3[C@H]1[C@@H]2c1ccccc1"
  experimental.system: "Estrogen receptor (Homo sapiens) (UniProt P03372)"
  result: "0%"
- compound: "Oc1ccc(CC2=C(c3cc(O)cc(O)c3)C(c3ccccc3)c3c(O)cc(O)cc32)cc1 (configuration not stated)"
  experimental.system: "Estrogen receptor (Homo sapiens) (UniProt P03372)"
  result: "8.48%"

Ask: Form entry - test system: Estrogen receptor (Homo sapiens) (UniProt P03372); read-out: Activity; compound: Oc1ccc([C@@H]2c3c(O)cc(O)cc3C(O)[C@H]2c2cc(O)cc(O)c2)cc1 (relative stereo)
Reply: 24.5%

Ask: For Estrogen receptor (Homo sapiens) (UniProt P03372), provide Activity of Oc1ccc(C2C(c3cc(O)cc(O)c3)=C(Cc3ccc(Cl)cc3)c3cc(O)cc(O)c32)cc1 (configuration not stated) please.
Reply: 15.2%

Ask: For Estrogen receptor (Homo sapiens) (UniProt P03372), provide Activity of O=C1c2cc(O)cc(O)c2[C@@H](c2ccc(F)cc2)[C@@H]1c1cc(O)cc(O)c1 (relative stereo) please.
Reply: 7.61%

Ask: Item: Oc1ccc(/C=C2/c3cc(O)cc(O)c3[C@@H](c3ccc(O)cc3)[C@@H]2c2cc(O)cc(O)c2)cc1 Test system: Estrogen receptor (Homo sapiens) (UniProt P03372) Read-out: Activity Value: ?
Reply: 20.9%

Ask: Give Estrogen receptor (Homo sapiens) (UniProt P03372) Activity for Oc1ccc(/C=C/c2cc(O)cc(O)c2)cc1
Reply: 0%

Ask: # query: Activity | item Oc1ccc(CC2=C(c3cc(O)cc(O)c3)C(c3ccc(O)cc3)c3c(O)cc(O)cc32)cc1 (configuration not stated) | system: Estrogen receptor (Homo sapiens) (UniProt P03372)
Reply: 5.84%

Ask: What is its Activity for Estrogen receptor (Homo sapiens) (UniProt P03372)? Entry: Oc1ccc(C2C(c3cc(O)cc(O)c3)=C(Cc3ccc(F)cc3)c3cc(O)cc(O)c32)cc1 (configuration not stated)
Reply: 1.59%

Ask: Query for Estrogen receptor (Homo sapiens) (UniProt P03372): what Activity does the record show for O=C1c2cc(O)cc(O)c2[C@@H](c2ccccc2)[C@@H]1c1cc(O)cc(O)c1 (relative stereo) ?
Reply: 7.59%
